- System: HCC-2998 colon
- measurement-description: NCI-60 one-dose screen, 48 h (100 = growth as untreated, 0 = no growth, -100 = all killed)
- conditions-used: 10 µM unless noted
This is part of a sample that, as a whole, favours compounds with a hit. Of some 83,000 tested, about 20% had one in any assay.
Property: growth; scope: individual compounds

compound: Cc1ccc(NC(=S)N/C=C(\c2ccccc2)S(=O)Cc2ccccc2)c(C)c1 (stereo unspecified)
growth, %: 105
//
compound: O=C(c1ccncc1)c1c(Cc2ccccc2)ccc2ccccc12
growth, %: 37.3
//
compound: Cc1c(O)nc(N)[nH]c1=O
growth, %: 92.8
//
compound: CC(C)(C)OC(=O)NCCc1ccc(N)cc1
growth, %: 107
//
compound: O=[N+]([O-])c1ccc(N/N=C/C2CCCCCC2)c([N+](=O)[O-])c1
growth, %: 106
//
compound: NC1=NC(c2ccccc2)N=C(Nc2ccccc2)N1 (stereo unspecified)
growth, %: 93.6

* * *

- Test system: RXF 393 renal
- measurement-description: NCI-60 one-dose screen, 48 h (100 = growth as untreated, 0 = no growth, -100 = all killed)
- conditions-used: 10 µM unless noted
About 83,000 compounds went through this panel and 20% of them were active in at least one assay; those are over-represented in the sample as a whole.

compound: CC(=O)C[n+]1ccccc1Sc1ccc(Cl)cc1
unit-name: %
growth: 109

compound: CCOCCC(=O)O
unit-name: %
growth: 108

compound: COC(=O)c1nc(N)nc(C(=O)OC)c1C(=O)c1ccc(F)cc1
unit-name: %
growth: 104

compound: S=c1nn[nH]n1C1CCCCC1
unit-name: %
growth: 148

compound: OCc1cccc(F)c1
unit-name: %
growth: 67.8

compound: CCC(C)(O)CCC(C)(O)CC (stereo not drawn)
unit-name: %
growth: 130

compound: CCC(C)NC(=O)c1ccccc1C (stereo not drawn)
unit-name: %
growth: 96

compound: Cc1nc(Nc2ccc(Cl)cc2)c2cnn(-c3ccccc3)c2n1
unit-name: %
growth: 93.6

* * *

- System: RXF 393 renal
- measurement-description: NCI-60 one-dose screen, 48 h (100 = growth as untreated, 0 = no growth, -100 = all killed)
- conditions-used: 10 µM unless noted
The panel holds about 83,000 compounds, 20% with a hit somewhere; the sample as a whole holds those more often. Active and inactive are the calls of the source. How the source made its calls: active means growth percent below 10; inactive means the rest.
// reported growth for each item listed
readout: growth

compound: O=c1[nH]c(=S)[nH]n1C(=S)n1[nH]c(=S)[nH]c1=O
target-system: RXF 393 renal
recorded-measurement: 95.6% (inactive)
//
compound: C#CCOC(=O)C(N)CS (stereo not drawn)
target-system: RXF 393 renal
recorded-measurement: 106% (inactive)
//
compound: CCCCCCC(C)CC1=C(O)c2ccccc2C(=O)C1=O (stereo not drawn)
target-system: RXF 393 renal
recorded-measurement: 60% (inactive)
//
compound: CCOC(=O)c1ccncc1
target-system: RXF 393 renal
recorded-measurement: 107% (inactive)
//
compound: O=P(O)(O)OC1C(OP(=O)(O)O)C(OP(=O)(O)O)C(OP(=O)(O)O)C(OP(=O)(O)O)C1OP(=O)(O)O.[Cu+2] (stereo not drawn)
target-system: RXF 393 renal
recorded-measurement: 125% (inactive)
//
compound: CCc1ccc(OC(=O)CCl)cc1
target-system: RXF 393 renal
recorded-measurement: 113% (inactive)
//
compound: N#Cc1c(N)nc2c(c(-c3ccc(Cl)cc3)nn2-c2ccccc2)c1C#N
target-system: RXF 393 renal
recorded-measurement: 97.1% [100 µM] (inactive)
//
compound: COc1cc(C2c3cc4c(cc3C(OC(=O)C[n+]3ccccc3)C3COC(=O)C23)OCO4)cc(OC)c1OC (stereo not drawn)
target-system: RXF 393 renal
recorded-measurement: 41.1% (inactive)
//
compound: COc1cc2c(cc1O)C(=O)CCCC2
target-system: RXF 393 renal
recorded-measurement: 105% (inactive)
//
compound: O=C1c2ccccc2CN1c1ccccc1
target-system: RXF 393 renal
recorded-measurement: 105% (inactive)
//
compound: O=C(O)C1CSCN1 (stereo not drawn)
target-system: RXF 393 renal
recorded-measurement: 123% (inactive)
//
compound: c1ccc2c[n+](Cc3ccc4ccccc4n3)ccc2c1
target-system: RXF 393 renal
recorded-measurement: 91% (inactive)
//
compound: Nc1ccccc1SC1CC(=O)N(c2ccc(I)cc2)C1=O (stereo not drawn)
target-system: RXF 393 renal
recorded-measurement: 115% (inactive)

* * *

- Tested on: SF-295 CNS
- measurement-description: NCI-60 one-dose screen, 48 h (100 = growth as untreated, 0 = no growth, -100 = all killed)
- conditions-used: 10 µM unless noted
About 83,000 compounds went through this panel and 20% of them were active in at least one assay; those are over-represented in the sample as a whole. Calls of active or inactive are those of the source. The calls were made as follows: active = growth percent below 10; inactive = the rest.
readout: growth

molecule: COc1ccc2nccc(Cl)c2c1
target-system: SF-295 CNS
recorded-measurement: 107% (inactive)

molecule: CN(C=O)c1ccccc1
target-system: SF-295 CNS
recorded-measurement: 92.8% (inactive)

molecule: CCOCCC(=O)O
target-system: SF-295 CNS
recorded-measurement: 102% (inactive)

molecule: Cc1cc2ccccc2c2cc3ccccc3cc12
target-system: SF-295 CNS
recorded-measurement: 96.9% (inactive)

molecule: O=C(N=C1C(=O)C2(CCCCC2)C2(N=C(c3ccccc3)OC2=O)C12CCCCC2)c1ccccc1 (centres undefined)
target-system: SF-295 CNS
recorded-measurement: 77.3% (inactive)

molecule: NCCCCCC(=O)O
target-system: SF-295 CNS
recorded-measurement: 104% (inactive) [middle of 4 runs]

molecule: COCCNC(C)=O
target-system: SF-295 CNS
recorded-measurement: 96.3% (inactive)

molecule: CC(=O)c1cccc(OC(=O)c2ccccc2)c1
target-system: SF-295 CNS
recorded-measurement: 124% (inactive)

molecule: CCC(C)(O)CCC(C)(O)CC (centres undefined)
target-system: SF-295 CNS
recorded-measurement: 102% (inactive)

molecule: CCN(CC)C(CC(=O)c1ccccc1)C(=O)c1ccccc1 (centres undefined)
target-system: SF-295 CNS
recorded-measurement: 103% (inactive)

molecule: Clc1ccc2sc(-c3ccccc3)nc2c1
target-system: SF-295 CNS
recorded-measurement: 100% (inactive)

molecule: NCCSSC/C=C\CSSCCN
target-system: SF-295 CNS
recorded-measurement: 104% (inactive)

molecule: CC(C)=NOC(C)C(=O)O (centres undefined)
target-system: SF-295 CNS
recorded-measurement: 93.1% (inactive)

molecule: CC(=O)/C(N=Nc1ccc(S(=O)(=O)c2ccc(N=N/C(C(C)=O)=C(/C)O)cc2)cc1)=C(\C)O
target-system: SF-295 CNS
recorded-measurement: 118% (inactive)

* * *

- Test system: SF-295 CNS
- measurement-description: NCI-60 one-dose screen, 48 h
- conditions-used: 10 µM unless noted
This is part of a sample that, as a whole, favours compounds with a hit. Of some 83,000 tested, about 20% had one in any assay. Activity calls are given as the source filed them. How the source made its calls: active means growth percent below 10; inactive means the rest.
Classes used: active, inactive

compound: CCCCCCC(C)CC1=C(O)c2ccccc2C(=O)C1=O (stereo not given)
class-label: inactive
--
compound: CCOC(=N)c1ccc(C(=N)OCC)cc1
class-label: inactive
--
compound: O=C(O)Cc1cc(=O)[nH]n(-c2ccccc2)c1=O
class-label: inactive
--
compound: CCC(C)NC(=O)c1ccccc1C (stereo not given)
class-label: inactive
--
compound: ON=C(C1CCCCC1)C1CCCCC1
class-label: inactive
--
compound: Cc1ccc(NC(=S)N/C=C(\c2ccccc2)S(=O)Cc2ccccc2)c(C)c1 (stereo not given)
class-label: inactive
--
compound: CNc1ccc(O)cc1
class-label: inactive
--
compound: C/C=C(/C(=O)NC(N)=O)C(C)C
class-label: inactive
--
compound: COc1ccc(/C=N/Nc2nc3ccccc3s2)cc1
class-label: inactive
--
compound: COc1cc(NCCCCCCCNC(C)C)c2nccc(C)c2c1
class-label: inactive
--
compound: COC(=O)c1nc(N)nc(C(=O)OC)c1C(=O)c1cccc2ccccc12
class-label: inactive
--
compound: COc1ccc(CCl)c(C)c1OC
class-label: inactive
--
compound: Cc1cc(Cl)nc(Nc2ccccc2)n1
class-label: inactive
--
compound: CC1(C)CC(=O)NC1=O
class-label: inactive
--
compound: CCN(CC)CCO/N=C1\CC(c2ccc(OC)c(OC)c2)Oc2ccccc21 (stereo not given)
class-label: inactive
--
compound: CCOC(=O)c1ccncc1
class-label: inactive
--
compound: CN(C)CC(CN(C)C)C(O)c1ccccc1 (stereo not given)
class-label: inactive
--
compound: COCCCNC1=C(C#N)C(=O)NC(c2cccs2)S1 (stereo not given)
class-label: inactive
--
compound: COC(=O)c1nc(=S)[nH]c(C(=O)OC)c1C(=O)c1ccc(OC)cc1
class-label: inactive
--
compound: C#CCOC(=O)C(N)CS (stereo not given)
class-label: inactive
--
compound: Nc1ccc(Cl)c(S(=O)(=O)O)c1
class-label: inactive
--
compound: CCCCNC(=O)c1ccccc1C
class-label: inactive
--
compound: CC1NC(C)c2ccc3ccccc3c2O1 (stereo not given)
class-label: inactive
--
compound: Nc1nc(-c2ccccn2)cc(-c2cc(-c3ccccn3)nc(N)n2)n1
class-label: inactive
--
compound: O=[N+]([O-])c1ccc(N/N=C/C2CCCCCC2)c([N+](=O)[O-])c1
class-label: inactive
--
compound: CCCC(=O)Oc1ccc(CC)cc1
class-label: inactive
--
compound: COc1ccc(S(=O)(=O)c2ccc(F)cc2)cc1
class-label: inactive
--
compound: COC(=O)c1cc(C(=O)OC)cc([N+](=O)[O-])c1
class-label: inactive
--
compound: OCc1cccc(F)c1
class-label: inactive
--
compound: CCOC(=O)CN1CCC(C(=O)OCC)CC1
class-label: inactive
--
compound: CCN(CC)CCNC(=O)c1ccc(NCN2C(=O)NC(c3ccccc3)(c3ccccc3)C2=O)cc1
class-label: inactive
--
compound: CCc1ccc(OC(=O)CCl)cc1
class-label: inactive
--
compound: C=CCN1C(=O)c2ccccc2C1=O
class-label: inactive
--
compound: Cc1ccc([N+](=O)[O-])cc1Br
class-label: inactive
--
compound: O=C(c1ccc(Cl)cc1)C1C(c2ccccc2)C1[N+](=O)[O-] (stereo not given)
class-label: inactive
--
compound: NNc1ncnc2cccc(Cl)c12
class-label: inactive
--
compound: CSc1nc(N)c(N)c(N)n1
class-label: inactive
--
compound: Nc1ccccc1SC1CC(=O)N(c2ccc(I)cc2)C1=O (stereo not given)
class-label: inactive
--
compound: O=C(O)COc1ccccc1F
class-label: inactive
--
compound: COc1ccc(CCn2cnn3c(=O)c4ccccc4nc3c2=O)cc1OC
class-label: inactive
--
compound: N#Cc1c(N)nc2c(c(-c3ccc(Cl)cc3)nn2-c2ccccc2)c1C#N
class-label: inactive
--
compound: CCCCCc1cc[n+](CC(=O)c2ccccc2)cc1
class-label: inactive
--
compound: O=c1[nH]c(=O)c2[nH]c(=O)[nH]c2[nH]1
class-label: inactive
--
compound: CC(=O)c1cc2ccccc2o1
class-label: inactive
--
compound: Cc1cc(=NO)cc(C)n1O
class-label: inactive
--
compound: Cc1c(Cl)c(C)c(Cc2c(C)c(Cl)c(C)c(Cl)c2O)c(O)c1Cl
class-label: active
--
compound: CCOc1ccc(/C=C\C(=O)O)cc1
class-label: inactive
--
compound: OCc1ccccc1F
class-label: inactive
--
compound: Cc1nc(Nc2ccc(Cl)cc2)c2cnn(-c3ccccc3)c2n1
class-label: inactive
--
compound: CC(NC(=O)CCl)c1ccccc1 (stereo not given)
class-label: inactive
--
compound: COc1ccc(CCO)cc1
class-label: inactive
--
compound: COc1ccc2oc3c(ccc[n+]3C)c(=O)c2c1
class-label: inactive
--
compound: O=C1C2=C(Nc3cc(Cl)ccc3N2)OC1c1c[nH]c2ccc(COc3ccccc3)cc12 (stereo not given)
class-label: inactive
--
compound: CC(=O)Oc1ccc(C(c2ccc(OC(C)=O)cc2)c2ccccn2)cc1
class-label: inactive
--
compound: C(=N\OCCc1ccccc1)/c1ccccn1
class-label: inactive
